src = patent US20220380463A1

# Measured on: T1, Cynomolgus CD3εδ Fc heterodimer (Cy CD3ε Fc / CD3δ Fc-HIS) (cynomolgus, UniProt Q95LI8 22-100)
# T1 chain 1: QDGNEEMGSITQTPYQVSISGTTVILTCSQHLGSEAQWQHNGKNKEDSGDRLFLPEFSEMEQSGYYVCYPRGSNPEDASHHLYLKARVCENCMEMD
# T1 chain 2: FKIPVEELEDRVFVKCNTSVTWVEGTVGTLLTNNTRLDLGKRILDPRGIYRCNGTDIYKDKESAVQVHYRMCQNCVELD
# Assay: BLI (Octet), IgG on AHC sensor, pH 6.0
koff strictly less than 0.02 s⁻¹ = true. Otherwise false.

- Binder: "SAD10318_P04_H10 (ADI-57290) (antibody, V domains shown, IgG; also called Ab214) VH: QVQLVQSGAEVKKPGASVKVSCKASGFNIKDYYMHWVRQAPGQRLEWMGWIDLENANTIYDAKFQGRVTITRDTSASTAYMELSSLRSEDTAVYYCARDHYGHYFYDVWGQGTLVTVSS VL: DIVMTQSPDSLAVSLGERATINCKSSQSLLNAHTGKNHLAWYQQKPGQPPKLLIYWASTRESGVPDRFSGSGSGTDFTLTISSLQAEDVAVYYCKQSYSRRTFGGGTKVEIK"
  Group: "true"
- Binder: "SAD10320_P04_A10 (ADI-57382) (antibody, V domains shown, IgG; also called Ab103) VH: QVQLVQSGAEVKKPGASVKVSCKASGFNIKDYYMHWVRQAPGQRLDWMGWIDLENANTIYDAKFQGRVTITRDTSASTAYMELSSLRSEDTAVYYCARDAYGHDFYDVWGQGTLVTVSS VL: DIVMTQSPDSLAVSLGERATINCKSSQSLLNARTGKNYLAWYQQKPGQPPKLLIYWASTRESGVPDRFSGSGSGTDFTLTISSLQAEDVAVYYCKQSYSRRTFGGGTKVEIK"
  Group: "true"
- Binder: "SAD10319_P06_E09 (ADI-57427) (antibody, V domains shown, IgG; also called Ab156) VH: QVQLVQSGAEVKKPGASVKVSCKASGYTFTAYDMHWVRQAPGQRLEWMGWINPDTGATVYSQKFQGRVTITRDTSASTAYMELSSLRSEDTAVYYCARDAYGRYFYDVWGQGTLVTVSS VL: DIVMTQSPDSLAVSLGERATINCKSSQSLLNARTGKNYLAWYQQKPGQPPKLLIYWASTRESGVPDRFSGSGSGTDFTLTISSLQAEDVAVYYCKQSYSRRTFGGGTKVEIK"
  Group: "true"

Asked: Please check: koff for SAD10319_P05_D04 (ADI-57409) (antibody, V domains shown, IgG; also called Ab137) VH: QVQLVQSGAEVKKPGASVKVSCKASGYTFTSDYMHWVRQAPGQRLEWMGWINAGTGATDYSQKFQGRVTITRDTSASTAYMELSSLRSEDTAVYYCAHDAYGRYHYDVWGQGTLVTVSS VL: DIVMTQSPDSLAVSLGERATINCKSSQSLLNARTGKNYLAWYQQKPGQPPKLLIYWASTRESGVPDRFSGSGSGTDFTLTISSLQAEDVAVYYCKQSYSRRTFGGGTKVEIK , strictly under 0.02 s⁻¹ or not?
Given back: false

Asked: Hi there! Is koff for SAD10319_P01_E01 (ADI-57298) (antibody, V domains shown, IgG; also called Ab232) VH: QVQLVQSGAEVKKPGASVKVSCKASGYTFDAYAMHWVRQAPGQRLEWMGWIDAGTGATAYSQKFQGRVTITRDTSASTAYMELSSLRSEDTAVYYCARDHYGHYFYDVWGQGTLVTVSS VL: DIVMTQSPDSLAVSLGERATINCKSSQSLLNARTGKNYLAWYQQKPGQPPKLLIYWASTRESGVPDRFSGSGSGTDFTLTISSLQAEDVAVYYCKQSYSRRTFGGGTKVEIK below 0.02 s⁻¹, do you know?
Given back: false

Asked: Consider SAD10319_P05_D03 (ADI-57408) (antibody, V domains shown, IgG; also called Ab135) VH: QVQLVQSGAEVKKPGASVKVSCKASGYTFTDDAMHWVRQAPGHRLEWMGWIDAGTGNTYYSQKFQGRVTITRDTSASTAYMELSSLRSEDTAVYYCAHDAYGHYFYDVWGQGTLVTVSS VL: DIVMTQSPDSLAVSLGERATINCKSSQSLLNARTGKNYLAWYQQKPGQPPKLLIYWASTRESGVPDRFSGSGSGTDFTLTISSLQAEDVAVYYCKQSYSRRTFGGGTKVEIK . Does its koff lie strictly below 0.02 s⁻¹?
Given back: false

Asked: Hello, is koff of the following binder strictly smaller than 0.02 s⁻¹? SAD10320_P01_C02 (ADI-57348) (antibody, V domains shown, IgG; also called Ab54) VH: QVQLVQSGAEVKKPGASVKVSCKASGFNIKDYYMHWVRQAPGQRLDWMGWIDLENANTIYDAKFQGRVTITRDTSASTAYMELSSLRSEDTAVYYCARDAGHRYFYDVWGQGTLVTVSS VL: DIVMTQSPDSLAVSLGERATINCKSSQSLLNARPGKNYLAWYQQKPGQPPKLLIYWASTRESGVPDRFSGSGSGTDFTLTISSLQAEDVAVYYCGHSYSRRTFGGGTKVEIK
Given back: true

Asked: Determine if SAD10320_P03_B07 (ADI-57373) (antibody, V domains shown, IgG; also called Ab90) VH: QVQLVQSGAEVKKPGASVKVSCKASGFNIKDYYMHWVRQAPGQRLAWMGWIDLENANTIYDAKFQGRVTITRDTSASTAYMELSSLRSEDTAVYYCARDAYGHDFYDVWGQGTLVTVSS VL: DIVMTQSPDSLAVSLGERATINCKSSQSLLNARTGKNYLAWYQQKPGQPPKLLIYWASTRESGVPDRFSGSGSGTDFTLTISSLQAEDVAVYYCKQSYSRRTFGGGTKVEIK shows koff strictly lower than 0.02 s⁻¹.
Given back: true

Asked: Say whether its koff is strictly beneath 0.02 s⁻¹. Entry: LAD9954_P01_B02 (ADI-57438) (antibody, V domains shown, IgG; also called Ab168) VH: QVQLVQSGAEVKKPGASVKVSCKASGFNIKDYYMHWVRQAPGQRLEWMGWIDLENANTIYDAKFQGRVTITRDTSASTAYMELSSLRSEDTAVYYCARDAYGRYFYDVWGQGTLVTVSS VL: DIVMTQSPDSLAVSLGERATINCKSSQSLLHARTGHNYLAWYQQKPGQPPKLLIYWASTRESGVPDRFSGSGSGTDFTLTISSLQAEDVAVYYCKQSYSRRTFGGGTKVEIK
Given back: false
